Reported binding signal values for a set of sequences
Molecular target: C-Rel subunit;p52 subunit (Homo sapiens;Homo sapiens, UniProt Q04864;Q00653 1-285;4-332)
Sequence 1: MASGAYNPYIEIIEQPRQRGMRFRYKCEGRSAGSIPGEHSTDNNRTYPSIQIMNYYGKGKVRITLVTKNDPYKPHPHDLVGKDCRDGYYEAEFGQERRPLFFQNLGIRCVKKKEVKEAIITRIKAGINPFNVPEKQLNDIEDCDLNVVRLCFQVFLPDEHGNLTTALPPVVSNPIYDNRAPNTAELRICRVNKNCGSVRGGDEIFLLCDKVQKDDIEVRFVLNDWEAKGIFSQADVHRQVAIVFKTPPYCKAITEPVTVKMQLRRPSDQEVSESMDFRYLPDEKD
Sequence 2: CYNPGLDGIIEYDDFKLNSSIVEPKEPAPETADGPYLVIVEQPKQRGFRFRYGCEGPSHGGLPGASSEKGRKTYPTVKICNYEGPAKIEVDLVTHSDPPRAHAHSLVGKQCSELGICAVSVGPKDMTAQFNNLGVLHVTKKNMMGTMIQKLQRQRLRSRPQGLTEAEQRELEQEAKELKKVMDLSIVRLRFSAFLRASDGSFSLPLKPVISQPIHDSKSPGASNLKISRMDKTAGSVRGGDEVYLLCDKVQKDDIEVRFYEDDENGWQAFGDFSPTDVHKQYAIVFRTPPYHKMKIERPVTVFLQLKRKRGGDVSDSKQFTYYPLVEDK
Assay: protein binding microarray; high values mean tight binding
Conditions: dsDNA, one strand shown
test.readout: binding signal (z-score)

[[record]]
primary_sequence = "AGAGATTTCCT"
measurement_target = "C-Rel subunit;p52 subunit (Homo sapiens;Homo sapiens, UniProt Q04864;Q00653 1-285;4-332)"
measured = -0.443

[[record]]
primary_sequence = "AGAGTATTCCC"
measurement_target = "C-Rel subunit;p52 subunit (Homo sapiens;Homo sapiens, UniProt Q04864;Q00653 1-285;4-332)"
measured = 0.396

[[record]]
primary_sequence = "CAAAGTACCCC"
measurement_target = "C-Rel subunit;p52 subunit (Homo sapiens;Homo sapiens, UniProt Q04864;Q00653 1-285;4-332)"
measured = 0.588

[[record]]
primary_sequence = "CAATACTTCCT"
measurement_target = "C-Rel subunit;p52 subunit (Homo sapiens;Homo sapiens, UniProt Q04864;Q00653 1-285;4-332)"
measured = -0.829

[[record]]
primary_sequence = "AGGTACATCCT"
measurement_target = "C-Rel subunit;p52 subunit (Homo sapiens;Homo sapiens, UniProt Q04864;Q00653 1-285;4-332)"
measured = -0.415

[[record]]
primary_sequence = "GGATACCCCCC"
measurement_target = "C-Rel subunit;p52 subunit (Homo sapiens;Homo sapiens, UniProt Q04864;Q00653 1-285;4-332)"
measured = 1.54

[[record]]
primary_sequence = "AGGTAGGCCCT"
measurement_target = "C-Rel subunit;p52 subunit (Homo sapiens;Homo sapiens, UniProt Q04864;Q00653 1-285;4-332)"
measured = -0.598

[[record]]
primary_sequence = "AGAATAATCCT"
measurement_target = "C-Rel subunit;p52 subunit (Homo sapiens;Homo sapiens, UniProt Q04864;Q00653 1-285;4-332)"
measured = -0.909

[[record]]
primary_sequence = "AGATAAGCCCT"
measurement_target = "C-Rel subunit;p52 subunit (Homo sapiens;Homo sapiens, UniProt Q04864;Q00653 1-285;4-332)"
measured = -0.712

[[record]]
primary_sequence = "CGGAACACCCT"
measurement_target = "C-Rel subunit;p52 subunit (Homo sapiens;Homo sapiens, UniProt Q04864;Q00653 1-285;4-332)"
measured = -0.317

[[record]]
primary_sequence = "CAATAATCCCT"
measurement_target = "C-Rel subunit;p52 subunit (Homo sapiens;Homo sapiens, UniProt Q04864;Q00653 1-285;4-332)"
measured = 0.284

[[record]]
primary_sequence = "GAAAACATCCC"
measurement_target = "C-Rel subunit;p52 subunit (Homo sapiens;Homo sapiens, UniProt Q04864;Q00653 1-285;4-332)"
measured = -0.211

[[record]]
primary_sequence = "CGGGTTATCCC"
measurement_target = "C-Rel subunit;p52 subunit (Homo sapiens;Homo sapiens, UniProt Q04864;Q00653 1-285;4-332)"
measured = 0.791

[[record]]
primary_sequence = "GAGAGGACCCC"
measurement_target = "C-Rel subunit;p52 subunit (Homo sapiens;Homo sapiens, UniProt Q04864;Q00653 1-285;4-332)"
measured = -0.571

[[record]]
primary_sequence = "CAGATGACCCC"
measurement_target = "C-Rel subunit;p52 subunit (Homo sapiens;Homo sapiens, UniProt Q04864;Q00653 1-285;4-332)"
measured = -0.39

[[record]]
primary_sequence = "AAAAGCACCCC"
measurement_target = "C-Rel subunit;p52 subunit (Homo sapiens;Homo sapiens, UniProt Q04864;Q00653 1-285;4-332)"
measured = 0.69

[[record]]
primary_sequence = "GGAGGTATCCC"
measurement_target = "C-Rel subunit;p52 subunit (Homo sapiens;Homo sapiens, UniProt Q04864;Q00653 1-285;4-332)"
measured = -0.276

[[record]]
primary_sequence = "CAAATAATCCT"
measurement_target = "C-Rel subunit;p52 subunit (Homo sapiens;Homo sapiens, UniProt Q04864;Q00653 1-285;4-332)"
measured = -0.674

[[record]]
primary_sequence = "AAAAGGTCCCC"
measurement_target = "C-Rel subunit;p52 subunit (Homo sapiens;Homo sapiens, UniProt Q04864;Q00653 1-285;4-332)"
measured = 0.594

[[record]]
primary_sequence = "CGAATACCCCT"
measurement_target = "C-Rel subunit;p52 subunit (Homo sapiens;Homo sapiens, UniProt Q04864;Q00653 1-285;4-332)"
measured = 0.881

